IC50 values for the molecules below.
# tgt: Calpain-2 catalytic subunit (Sus scrofa, UniProt P43367)
# Sequence (P43367 whole entry): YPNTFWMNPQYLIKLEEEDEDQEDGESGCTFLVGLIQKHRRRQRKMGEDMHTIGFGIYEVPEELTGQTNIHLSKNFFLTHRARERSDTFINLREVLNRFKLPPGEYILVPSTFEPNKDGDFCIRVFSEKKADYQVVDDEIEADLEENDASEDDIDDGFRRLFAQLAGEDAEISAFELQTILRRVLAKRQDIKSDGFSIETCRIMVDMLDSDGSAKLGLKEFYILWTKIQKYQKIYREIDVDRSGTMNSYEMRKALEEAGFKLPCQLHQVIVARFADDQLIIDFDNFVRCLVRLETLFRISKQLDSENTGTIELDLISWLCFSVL
# procedureSummary: pig calpain II inhibitor potency, dose response, biochemical, fluorogenic peptide substrate (AID 1420)
# Format: functional

Some molecules with recorded IC50:
molecule	IC50
O=c1cc(-c2ccccc2)oc2cc(OCc3ccccc3)cc(O)c12	> 50 µM (not active)
Oc1c(Cl)cc(Cl)cc1C(C#Cc1ccccc1)N1CCOCC1 (configuration not stated)	12.8 µM (not active)
CN1CCC/C1=C/C=C1\SC(=S)NC1=O	13.4 µM (not active)

**Q:** Look up IC50 for this molecule: O=C(NC(=S)NCC1CCCO1)c1ccc(Br)o1 (configuration not stated)
**A:** 1.43 µM (not active)

**Q:** What IC50 value was documented for this molecule, CCCCNC(=S)N/N=C1\CCCCc2ccccc21 ?
**A:** 11.2 µM (not active)

**Q:** What value of IC50 has been reported for the following molecule? O=C(CCNc1ccccc1)c1cccc([N+](=O)[O-])c1
**A:** 14.1 µM (not active)

**Q:** Please report the recorded IC50 for CC1CCCCN1Cc1cnc(Cl)s1 (configuration not stated) .
**A:** > 50 µM (not active)

---

# procedureSummary: inhibitors of firefly luciferase expression or activity, dose response, H4 neuroglioma cells, luminescence (AID 1990)
# Type: functional, cell-based
The source made the active and inactive calls.
measuredAttribute: EC50

**Q:** Which EC50 reading was recorded for the molecule CCOC(=O)CN1C(=O)C(Sc2n[nH]c(-c3ccc(C)cc3)n2)CCc2ccccc21 (stereo not given) ?
**A:** 19.1 µM (active)

**Q:** Consider the molecule shown here: CCCCCCCn1ccc(=N)cc1 What is its recorded EC50?
**A:** 13 µM (active)

**Q:** Consider the molecule shown here: C[C@@H]1O[C@@H](O[C@H]2C[C@@H](O)[C@]3(CO)[C@H]4[C@H](O)C[C@]5(C)[C@@H](C6=CC(=O)OC6)CC[C@]5(O)[C@@H]4CC[C@]3(O)C2)[C@H](O)[C@H](O)[C@H]1O What is its recorded EC50?
**A:** < 0.1 µM (active)

**Q:** So what does the record say about EC50 for Cc1ccnc(NC(=O)c2ccccc2NC(=O)c2ccc(Cl)cc2Cl)c1 ?
**A:** 10.6 µM (inconclusive)

**Q:** Sample O=C1C([N-]S(=O)(=O)c2cccs2)=C([n+]2ccccc2)C(=O)c2ccccc21 — what was its EC50?
**A:** 12.9 µM (active)

---

Reported Ki values are given for each entry in this list.
# tgt: Vascular endothelial growth factor receptor 2 (Homo sapiens, UniProt P35968)
# Sequence (P35968 whole entry): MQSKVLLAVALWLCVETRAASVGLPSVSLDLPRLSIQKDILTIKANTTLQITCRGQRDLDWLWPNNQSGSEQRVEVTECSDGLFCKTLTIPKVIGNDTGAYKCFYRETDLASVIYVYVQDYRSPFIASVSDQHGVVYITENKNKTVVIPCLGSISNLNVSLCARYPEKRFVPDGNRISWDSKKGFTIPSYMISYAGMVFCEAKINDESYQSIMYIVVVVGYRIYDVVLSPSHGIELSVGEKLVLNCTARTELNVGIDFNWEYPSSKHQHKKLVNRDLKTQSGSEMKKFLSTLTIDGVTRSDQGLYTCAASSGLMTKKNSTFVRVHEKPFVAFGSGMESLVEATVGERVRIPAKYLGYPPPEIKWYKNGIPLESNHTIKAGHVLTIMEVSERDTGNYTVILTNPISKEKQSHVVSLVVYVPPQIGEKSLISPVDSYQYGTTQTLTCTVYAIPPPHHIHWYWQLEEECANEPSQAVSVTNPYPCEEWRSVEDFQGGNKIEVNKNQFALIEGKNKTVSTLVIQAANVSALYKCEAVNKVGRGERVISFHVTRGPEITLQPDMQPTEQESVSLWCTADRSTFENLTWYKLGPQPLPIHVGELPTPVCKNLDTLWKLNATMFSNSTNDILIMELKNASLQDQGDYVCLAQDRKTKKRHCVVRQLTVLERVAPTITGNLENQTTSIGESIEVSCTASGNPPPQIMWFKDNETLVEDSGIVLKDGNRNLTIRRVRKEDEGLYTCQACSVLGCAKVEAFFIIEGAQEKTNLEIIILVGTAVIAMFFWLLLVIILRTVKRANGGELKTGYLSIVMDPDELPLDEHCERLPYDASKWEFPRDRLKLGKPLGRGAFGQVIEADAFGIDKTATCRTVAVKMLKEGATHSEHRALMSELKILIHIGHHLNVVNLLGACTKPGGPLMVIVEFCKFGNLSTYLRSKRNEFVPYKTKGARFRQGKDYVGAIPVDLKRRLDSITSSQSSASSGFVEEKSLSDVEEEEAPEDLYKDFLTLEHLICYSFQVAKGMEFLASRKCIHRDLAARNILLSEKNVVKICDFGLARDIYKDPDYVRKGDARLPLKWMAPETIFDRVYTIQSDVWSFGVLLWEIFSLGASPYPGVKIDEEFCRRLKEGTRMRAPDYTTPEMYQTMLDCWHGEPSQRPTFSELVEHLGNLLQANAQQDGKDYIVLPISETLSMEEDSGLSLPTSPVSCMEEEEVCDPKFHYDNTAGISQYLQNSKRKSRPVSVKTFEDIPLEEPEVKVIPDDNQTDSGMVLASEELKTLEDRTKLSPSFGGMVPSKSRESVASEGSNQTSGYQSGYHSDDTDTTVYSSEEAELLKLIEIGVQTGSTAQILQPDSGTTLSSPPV
# Format: functional
Calls of active or inactive are those of the source.

Sample records with Ki:
compound	Ki
c1ccc(C2CCc3[nH]ncc32)cc1 (centres undefined)	50.1 µM (active)
Cn1nc(N)c2c(-c3ccc(NC(=O)Nc4cccc(C(F)(F)F)c4)cc3)ccnc21	0.000631 µM (active)
O=C1NC(=S)SC1=C1C(=O)Nc2ccc(Br)cc21	> 7.94 µM (inactive)

**Q:** What value of measured Ki is listed for CC(C)c1cc(=O)[nH]c2[nH][nH]c(=O)c12 ?
**A:** > 100 µM (inactive)
